Every entry's value here was drawn from ChEMBL document CHEMBL1781998.

# Experiment: Inhibition of caspase-like activity of human erythrocyte 20S proteasome using Z-LLE-AMC substrate incubated at 37 degC for 1 hr by fluorometric assay
Where a SMILES comes first, the peptide text is derived from it. The star is where a group is joined. Cbz = O=C(OCc1ccccc1)*
Experimental Readout: IC50

INSERT INTO assay_data (molecule, meas_value) VALUES
  ('CC(C)C[C@H](NC(=O)CC[C@H](NC(=O)CNC(=O)OC(C)(C)C)C(=O)NCc1ccccc1)B(O)O', '> 10 µM');

Given the molecule "CC(C)C[C@H](NC(=O)CCC[C@H](NC(=O)OC(C)(C)C)C(=O)NCc1ccc2ccccc2c1)B(O)O" , write its reported IC50. > 10 µM

Given the molecule CC(C)C[C@@H](C=O)NC(=O)[C@H](CC(C)C)NC(=O)[C@H](CC(C)C)NC(=O)OCc1ccccc1 [MG-132] (Cbz-Leu-Leu-Leu-aldehyde) , write its reported IC50. 7.23 µM

Given the molecule "CC(C)C[C@H](NC(=O)CCC[C@H](NC(=O)CNC(=O)OC(C)(C)C)C(=O)NCc1ccc2ccccc2c1)B(O)O" , write its reported IC50. > 10 µM

Given the molecule "CC(C)C[C@H](NC(=O)CC[C@H](NC(=O)OC(C)(C)C)C(=O)NCc1ccc2ccccc2c1)B(O)O" , write its reported IC50. > 10 µM

====

# Experiment: Inhibition of caspase-like activity of human erythrocyte 20S proteasome using Z-LLE-AMC substrate incubated at 37 degC for 1 hr by fluorometric assay
pIC50: −log10 of the molar value.
Experimental Readout: pIC50

INSERT INTO results (molecule, meas_value) VALUES
  ('CC(C)C[C@H](NC(=O)CC[C@H](NC(=O)CNC(=O)OC(C)(C)C)C(=O)NCc1ccc2ccccc2c1)B(O)O', 5.07);

1. CC(C)C[C@H](NC(=O)CC[C@H](NC(=O)[C@H](C)NC(=O)OC(C)(C)C)C(=O)NCc1ccc2ccccc2c1)B(O)O
2. CC(C)C[C@H](NC(=O)[C@H](Cc1ccccc1)NC(=O)c1cnccn1)B(O)O [BORTEZOMIB]
Among 1 and 2 , whose measured pIC50 is the smaller figure? Label of pick, please. 1

====

molecules and their reported IC50
# Experiment: Inhibition of caspase-like activity of human erythrocyte 20S proteasome using Z-LLE-AMC substrate incubated at 37 degC for 1 hr by fluorometric assay

INSERT INTO assay_data (line_notation, experimental_readout, meas_value) VALUES
  ('CC(C)C[C@H](NC(=O)CC[C@H](NC(=O)[C@H](CC(C)C)NC(=O)OC(C)(C)C)C(=O)NCc1ccc2ccccc2c1)B(O)O', 'IC50', '> 10 µM'),
  ('CC(C)C[C@H](NC(=O)CCC[C@H](NC(=O)[C@H](C)NC(=O)OC(C)(C)C)C(=O)NCc1ccc2ccccc2c1)B(O)O', 'IC50', '> 10 µM');

Given the molecule "CC(C)C[C@H](NC(=O)CC[C@H](NC(=O)[C@H](Cc1ccccc1)NC(=O)OC(C)(C)C)C(=O)NCc1ccc2ccccc2c1)B(O)O" , write its reported IC50. > 10 µM

Given the molecule "CC(C)C[C@H](NC(=O)C[C@H](NC(=O)OC(C)(C)C)C(=O)NCc1ccc2ccccc2c1)B(O)O" , write its reported IC50. > 10 µM
